Cited source for all entries: paper PMC10714424

System: MCF-7 cells
experimental-protocol: Cell proliferation assay (trypan blue cell count)
Type: cell-based, human
study-conditions: Homo sapiens, MCF7, 48 h, MCF-7, 48 h; read-out: antiproliferative IC50
pIC50: −log10 of the molar value.
assay-endpoint: pIC50

- N#Cc1ccc(C(c2ccc(C#N)cc2)n2cncn2)cc1 [letrozole]: 6.22
